Consider the following molecules; for each one, report its In Vitro FAAH activity, 10 uM.
# Experimental system: FAAH (Rattus norvegicus, UniProt P97612)
# Construct: Frozen brains (without cerebellum) from Wistar rats were used; from tissue; host or cells: Wistar rat brain (without cerebellum), washed membrane pellets
# Sequence (P97612 whole entry): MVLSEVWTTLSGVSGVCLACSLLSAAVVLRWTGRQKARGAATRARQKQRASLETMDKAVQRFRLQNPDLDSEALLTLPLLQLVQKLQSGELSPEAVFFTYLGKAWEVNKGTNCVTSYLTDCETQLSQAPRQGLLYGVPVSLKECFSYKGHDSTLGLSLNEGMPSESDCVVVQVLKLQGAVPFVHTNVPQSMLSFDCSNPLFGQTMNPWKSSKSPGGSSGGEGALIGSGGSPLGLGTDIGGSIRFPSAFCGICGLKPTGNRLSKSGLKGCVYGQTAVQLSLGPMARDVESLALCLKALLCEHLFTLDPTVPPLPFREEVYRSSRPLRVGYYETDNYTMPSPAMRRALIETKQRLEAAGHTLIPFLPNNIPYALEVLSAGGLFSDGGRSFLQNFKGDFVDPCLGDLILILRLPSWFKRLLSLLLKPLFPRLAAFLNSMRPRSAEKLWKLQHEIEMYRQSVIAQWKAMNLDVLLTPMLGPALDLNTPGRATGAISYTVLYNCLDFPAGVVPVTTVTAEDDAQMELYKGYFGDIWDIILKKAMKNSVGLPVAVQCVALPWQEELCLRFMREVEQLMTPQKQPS
# Test name: In vitro FAAH activity in rat brain membranes, 3H-AEA substrate, % of control
# Type: biochemical, Wistar rats
# Conditions used: 10 uM test compound, low value = strong inhibitor

Please report the recorded In Vitro FAAH activity, 10 uM for CC1(C)COCN1C(=O)n1cnc(-c2cccc(-c3cccc(C(N)=O)c3)c2)c1 .
0 % of control

Field: In Vitro FAAH activity, 10 uM. Fill in for each record below.
1. O=C(Nc1ccc(-c2ccccc2)cc1)n1ccc(-c2ccccc2)n1
2. O=C(Nc1ccccc1)n1ccc(-c2ccccc2)n1 [Compound 5, N,3-diphenyl-1H-pyrazole-1-carboxamide]
3. O=C(N1CCC(Cc2ccccc2)CC1)n1nnc2ccccc21
4. CN(C(=O)n1cnc(-c2ccc(Cl)cc2)c1)c1ccccc1
5. CN(C(=O)n1ccc(-c2ccc(-c3ccccc3)cc2)n1)c1ccccc1

1: 66.9 % of control; 2: 91.3 % of control; 3: 0 % of control; 4: 0.2 % of control; 5: 99 % of control
